Target: T1, ARHGEF11, O15085
T1 sequence (O15085 42-136, limits assumed, looked up): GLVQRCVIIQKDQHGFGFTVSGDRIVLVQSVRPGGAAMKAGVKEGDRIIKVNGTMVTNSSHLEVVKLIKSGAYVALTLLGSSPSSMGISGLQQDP
Assay: holdup assay
Design: key: below the threshold = too weak to quantify, mostly under pKd 3.1 to 4
Conditions: plain residues with an end cap or a label only (N-terminal biotin on a linker: ttds)
Classification field: Fulfilled = pKd at or over 4; Not fulfilled = pKd under 4.

binder	category
RHTTSTETAV [HPV30-E6, P36809]	Fulfilled
RLQRRRETQV [HPV18-E6, P06463]	Not fulfilled
DKDPHSETAL [TMIGD1, Q6UXZ0]	Fulfilled
EMDRRPATVV [PLCB4, Q15147]	Fulfilled
SSLQSLETSV [ATP2B4, P23634]	Fulfilled
PRVKPQRSKV [PPP1R13L, Q8WUF5]	Not fulfilled
RLPKIKETTV [FRMPD4, Q14CM0]	Not fulfilled

Value source: paper PMC9482650
